Biological target: Human Cav2.2 channels (Homo sapiens, UniProt Q00975)
Construct: expressed in transfected cells
Sequence (Q00975 whole entry): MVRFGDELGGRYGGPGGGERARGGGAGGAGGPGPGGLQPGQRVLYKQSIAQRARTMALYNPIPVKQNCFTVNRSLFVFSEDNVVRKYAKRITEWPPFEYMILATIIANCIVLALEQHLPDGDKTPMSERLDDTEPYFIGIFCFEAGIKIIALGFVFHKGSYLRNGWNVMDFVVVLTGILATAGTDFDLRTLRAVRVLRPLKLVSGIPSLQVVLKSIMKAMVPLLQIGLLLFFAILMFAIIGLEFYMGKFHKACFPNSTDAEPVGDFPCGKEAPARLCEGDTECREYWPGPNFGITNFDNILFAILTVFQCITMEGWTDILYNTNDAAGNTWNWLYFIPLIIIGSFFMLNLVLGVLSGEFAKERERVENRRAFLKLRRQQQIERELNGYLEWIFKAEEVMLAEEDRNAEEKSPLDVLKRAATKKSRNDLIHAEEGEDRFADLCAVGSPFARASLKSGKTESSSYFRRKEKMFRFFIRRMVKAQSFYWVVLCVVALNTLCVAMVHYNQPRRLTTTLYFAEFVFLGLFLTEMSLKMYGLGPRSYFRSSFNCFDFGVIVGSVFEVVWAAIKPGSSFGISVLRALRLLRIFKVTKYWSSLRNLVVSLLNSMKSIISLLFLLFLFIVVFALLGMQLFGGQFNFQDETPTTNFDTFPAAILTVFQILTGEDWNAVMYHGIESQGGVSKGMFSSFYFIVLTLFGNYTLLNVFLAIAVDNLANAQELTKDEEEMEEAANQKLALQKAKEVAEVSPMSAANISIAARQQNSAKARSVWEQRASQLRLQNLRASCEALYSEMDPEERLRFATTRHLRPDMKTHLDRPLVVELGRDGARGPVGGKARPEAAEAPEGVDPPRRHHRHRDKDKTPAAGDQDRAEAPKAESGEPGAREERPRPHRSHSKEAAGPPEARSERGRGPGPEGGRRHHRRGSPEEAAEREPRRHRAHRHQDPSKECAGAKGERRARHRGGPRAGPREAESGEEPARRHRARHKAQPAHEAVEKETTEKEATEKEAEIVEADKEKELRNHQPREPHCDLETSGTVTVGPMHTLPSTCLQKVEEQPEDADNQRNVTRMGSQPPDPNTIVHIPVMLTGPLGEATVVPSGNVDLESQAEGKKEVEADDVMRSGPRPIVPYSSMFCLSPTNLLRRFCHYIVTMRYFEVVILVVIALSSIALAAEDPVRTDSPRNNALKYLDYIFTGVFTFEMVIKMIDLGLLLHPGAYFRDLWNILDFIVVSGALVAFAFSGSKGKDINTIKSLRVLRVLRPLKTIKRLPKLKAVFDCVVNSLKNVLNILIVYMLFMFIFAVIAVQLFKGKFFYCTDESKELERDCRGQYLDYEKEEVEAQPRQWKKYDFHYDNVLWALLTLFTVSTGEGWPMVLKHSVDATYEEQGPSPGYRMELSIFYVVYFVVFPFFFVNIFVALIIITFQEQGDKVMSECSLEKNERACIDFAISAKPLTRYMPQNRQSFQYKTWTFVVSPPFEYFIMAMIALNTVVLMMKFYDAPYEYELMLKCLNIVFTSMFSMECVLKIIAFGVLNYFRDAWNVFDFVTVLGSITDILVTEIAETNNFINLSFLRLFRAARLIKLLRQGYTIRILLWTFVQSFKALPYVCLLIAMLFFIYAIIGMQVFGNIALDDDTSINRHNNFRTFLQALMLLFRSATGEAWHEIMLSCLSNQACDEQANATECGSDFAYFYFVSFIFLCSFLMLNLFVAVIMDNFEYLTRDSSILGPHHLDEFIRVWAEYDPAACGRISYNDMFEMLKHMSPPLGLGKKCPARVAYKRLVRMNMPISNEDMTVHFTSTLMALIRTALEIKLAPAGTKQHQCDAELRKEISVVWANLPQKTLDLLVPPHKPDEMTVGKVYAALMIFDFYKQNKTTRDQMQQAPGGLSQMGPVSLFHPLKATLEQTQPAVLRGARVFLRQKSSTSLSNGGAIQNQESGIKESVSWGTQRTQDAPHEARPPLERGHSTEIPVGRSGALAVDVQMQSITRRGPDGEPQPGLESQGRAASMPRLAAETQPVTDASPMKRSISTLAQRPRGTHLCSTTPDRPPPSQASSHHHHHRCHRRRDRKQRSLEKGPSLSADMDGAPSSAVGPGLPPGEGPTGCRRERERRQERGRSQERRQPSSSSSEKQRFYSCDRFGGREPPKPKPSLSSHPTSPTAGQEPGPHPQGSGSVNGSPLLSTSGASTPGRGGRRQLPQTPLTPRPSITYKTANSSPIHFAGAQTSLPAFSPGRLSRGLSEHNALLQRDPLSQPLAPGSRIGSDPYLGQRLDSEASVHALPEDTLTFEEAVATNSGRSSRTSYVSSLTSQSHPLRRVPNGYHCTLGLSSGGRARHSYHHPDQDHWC
Sequence (P54289 25-1103 partner): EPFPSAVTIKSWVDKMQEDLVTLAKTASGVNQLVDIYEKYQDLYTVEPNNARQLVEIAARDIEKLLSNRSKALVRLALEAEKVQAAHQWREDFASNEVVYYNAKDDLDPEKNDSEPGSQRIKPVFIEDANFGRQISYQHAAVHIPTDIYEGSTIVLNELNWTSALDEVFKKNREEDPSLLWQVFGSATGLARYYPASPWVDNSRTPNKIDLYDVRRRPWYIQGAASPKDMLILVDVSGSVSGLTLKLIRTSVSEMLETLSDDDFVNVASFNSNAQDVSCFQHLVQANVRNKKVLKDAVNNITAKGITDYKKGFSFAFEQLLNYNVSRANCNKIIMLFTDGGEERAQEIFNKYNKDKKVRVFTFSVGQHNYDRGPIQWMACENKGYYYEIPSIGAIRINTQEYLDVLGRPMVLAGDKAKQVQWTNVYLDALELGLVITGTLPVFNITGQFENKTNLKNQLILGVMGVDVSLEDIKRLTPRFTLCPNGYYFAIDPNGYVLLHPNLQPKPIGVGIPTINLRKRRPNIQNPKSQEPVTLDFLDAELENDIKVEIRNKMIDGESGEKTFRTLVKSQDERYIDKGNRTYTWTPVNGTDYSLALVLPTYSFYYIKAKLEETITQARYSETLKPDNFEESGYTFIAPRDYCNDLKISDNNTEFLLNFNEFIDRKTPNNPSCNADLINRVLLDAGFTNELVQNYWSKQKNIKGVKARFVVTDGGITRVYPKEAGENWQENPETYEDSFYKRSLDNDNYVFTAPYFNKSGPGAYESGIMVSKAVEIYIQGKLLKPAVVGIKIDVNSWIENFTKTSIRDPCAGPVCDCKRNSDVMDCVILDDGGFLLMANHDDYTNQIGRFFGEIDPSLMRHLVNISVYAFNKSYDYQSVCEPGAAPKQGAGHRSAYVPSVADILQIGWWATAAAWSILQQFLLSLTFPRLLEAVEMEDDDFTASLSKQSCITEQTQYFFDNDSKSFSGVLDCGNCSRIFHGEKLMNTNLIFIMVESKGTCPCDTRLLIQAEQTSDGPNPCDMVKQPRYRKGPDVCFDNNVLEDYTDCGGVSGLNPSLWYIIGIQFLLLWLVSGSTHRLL
Sequence (P54284 whole entry partner): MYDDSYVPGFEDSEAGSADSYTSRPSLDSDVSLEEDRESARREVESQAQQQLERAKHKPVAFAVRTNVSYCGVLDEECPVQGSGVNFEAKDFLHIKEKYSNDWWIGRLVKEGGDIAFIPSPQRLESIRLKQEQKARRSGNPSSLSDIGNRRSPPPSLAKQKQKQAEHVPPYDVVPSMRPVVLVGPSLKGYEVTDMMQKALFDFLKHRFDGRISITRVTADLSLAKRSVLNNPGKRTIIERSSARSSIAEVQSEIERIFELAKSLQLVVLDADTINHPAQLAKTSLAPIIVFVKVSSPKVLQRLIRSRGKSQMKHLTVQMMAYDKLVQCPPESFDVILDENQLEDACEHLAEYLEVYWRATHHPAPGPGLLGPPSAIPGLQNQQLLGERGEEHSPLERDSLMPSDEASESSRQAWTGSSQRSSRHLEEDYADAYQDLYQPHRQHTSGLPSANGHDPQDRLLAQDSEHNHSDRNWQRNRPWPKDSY
Test: Fluorescent assay for Cav2.2 channels using potassium depolarization to initiate channel opening
Format: cell-based
Conditions: 10 μM compound; read-out: Cav 2.2 Activity % Inh at 10 μM
# inhibition at 10 µM listing for each entry below
Write the answer as a number in %, unit excluded.

Structure | Test System | Unit Tag | Value Measured
CN(C)c1ccc(CNC(=O)C2(NC(=O)c3cc(C(C)(C)C)cc(C(C)(C)C)c3)CCCCC2)cc1 | Human Cav2.2 channels (Homo sapiens, UniProt Q00975) | % | 88.7

If you can, please state the reported inhibition at 10 µM value of CC(C)(C)c1cc(C(=O)NC2(C(=O)N3CCCC3)CCCC2)cc(C(C)(C)C)n1 .
89.5

If you can, please state the reported inhibition at 10 µM value of Cc1cnc(CNC(=O)C2(NC(=O)c3cc(C(C)(C)C)nc(C(C)(C)C)c3)CC2)cn1 .
91.9

If you can, please state the reported inhibition at 10 µM value of COc1c(C(C)(C)C)cc(C(=O)NC2(C(=O)NCc3ccccc3)CCCCC2)cc1C(C)(C)C .
88.8

Source listed as patent US20090270394A1.
